Organism: Rattus norvegicus
Experiment: Open TG-GATES - Regimen: Single
Assay type: toxicity, organism-based, Sprague-Dawley
Parameters: regimen Single, gender Male, age 6 weeks
Conditions: in vivo, po, 0 mg/kg, 24 h, tissue Plasma, route gavage, dose level Control
Please respond with reported Cl for every item in the list.
Numeric only. Scale: meq/L

Endpoint output: Cl of CCN1CCCC1CNC(=O)c1cc(S(N)(=O)=O)ccc1OC (centres undefined) [SULPIRIDE] . Value?
106.4

Endpoint output: Cl of CCSCC[C@H](N)C(=O)O . Value?
102

Endpoint output: Cl of CC(=N)S [THIOACETAMIDE] . Value?
102.8

Endpoint output: Cl of C[C@](N)(Cc1ccc(O)c(O)c1)C(=O)O . Value?
107.2
